target: Protein kinase C delta type (Mus musculus); assay: Tested for ability to displace […] phorbol 12,13- dibutyrate binding from recombinant C1b domain of murine Protein kinase C delta in presence of [Ca2+]
Parameter: Ki (nM)

// worked examples, Ki included
Structure Smiles String: CC(C)[C@H]1C(=O)N[C@H](CO)Cc2cc(NC(=O)CCCCC(=O)Nc3ccc4c(c3)N(C)[C@@H](C(C)C)C(=O)N[C@H](CO)C4)ccc2N1C
Assay Target: Protein kinase C delta type (Mus musculus)
Measurement Units: nM
Ki: 16.8
//
Structure Smiles String: CC(C)[C@H]1C(=O)N[C@H](CO)Cc2cc(NC(=O)CCCCCCCCCCCCCCC(=O)Nc3ccc4c(c3)N(C)[C@@H](C(C)C)C(=O)N[C@H](CO)C4)ccc2N1C
Assay Target: Protein kinase C delta type (Mus musculus)
Measurement Units: nM
Ki: 0.14
//
Structure Smiles String: CC(C)[C@H]1C(=O)N[C@H](CO)Cc2cc(NC(=O)CCCCCCCCCCCCCCCCCCCCC(=O)Nc3ccc4c(c3)N(C)[C@@H](C(C)C)C(=O)N[C@H](CO)C4)ccc2N1C
Assay Target: Protein kinase C delta type (Mus musculus)
Measurement Units: nM
Ki: 0.11
//
Structure Smiles String: CC(C)[C@H]1C(=O)N[C@H](CO)Cc2cc(NC(=O)CCCCCCCCCCC(=O)Nc3ccc4c(c3)N(C)[C@@H](C(C)C)C(=O)N[C@H](CO)C4)ccc2N1C
Assay Target: Protein kinase C delta type (Mus musculus)
Measurement Units: nM
Ki: 0.48
//
Structure Smiles String: CC(C)[C@H]1C(=O)N[C@H](CO)Cc2cc(NC(=O)CCCCCCCCC(=O)Nc3ccc(O)c4ccccc34)ccc2N1C
Assay Target: Protein kinase C delta type (Mus musculus)
Measurement Units: nM
Ki: 4.4

I = CC(C)[C@H]1C(=O)N[C@H](CO)Cc2cc(NC(=O)CCCCCCC(=O)Nc3ccc4c(c3)N(C)[C@@H](C(C)C)C(=O)N[C@H](CO)C4)ccc2N1C
II = CC(C)[C@H]1C(=O)N[C@H](CO)Cc2cc(NC(=O)CCCCCCCCC(=O)Nc3ccc4c(c3)N(C)[C@@H](C(C)C)C(=O)N[C@H](CO)C4)ccc2N1C
[ask] Consider I and II . Which of these has its Ki at a higher number? Please respond with the label that marks your chosen entry.
[reply] I
(I: 30.6 nM, II: 1.27 nM)

###

target: Protein kinase C delta type (Mus musculus, UniProt P28867); experiment: Tested for ability to displace […] phorbol 12,13- dibutyrate binding from recombinant murine Protein kinase C delta in presence of [Ca2+]
Sequence (P28867 whole entry, the tested form may be a part): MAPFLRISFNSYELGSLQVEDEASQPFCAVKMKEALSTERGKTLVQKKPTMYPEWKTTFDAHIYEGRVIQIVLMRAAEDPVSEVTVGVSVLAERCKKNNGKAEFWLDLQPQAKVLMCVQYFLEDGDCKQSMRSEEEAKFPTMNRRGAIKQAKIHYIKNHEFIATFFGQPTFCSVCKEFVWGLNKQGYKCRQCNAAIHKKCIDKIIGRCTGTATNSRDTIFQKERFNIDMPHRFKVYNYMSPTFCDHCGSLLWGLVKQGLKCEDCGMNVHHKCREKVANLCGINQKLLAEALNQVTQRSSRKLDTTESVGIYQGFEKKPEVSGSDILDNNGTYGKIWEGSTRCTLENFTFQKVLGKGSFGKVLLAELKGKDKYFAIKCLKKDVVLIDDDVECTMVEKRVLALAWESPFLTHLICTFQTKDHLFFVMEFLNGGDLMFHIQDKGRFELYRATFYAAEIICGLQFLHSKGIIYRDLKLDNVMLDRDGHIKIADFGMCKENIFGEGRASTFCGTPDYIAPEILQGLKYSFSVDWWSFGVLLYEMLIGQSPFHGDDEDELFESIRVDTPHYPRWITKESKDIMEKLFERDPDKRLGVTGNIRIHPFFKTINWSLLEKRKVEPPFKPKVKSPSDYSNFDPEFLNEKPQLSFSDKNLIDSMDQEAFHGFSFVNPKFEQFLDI
pKi: −log10 of the molar value.
Parameter: pKi

Compound: CC(C)[C@H]1C(=O)N[C@H](CO)Cc2cc(NC(=O)CCCCCCCCC(=O)Nc3ccc(O)c4ccccc34)ccc2N1C
Parameter: pKi
Observed Value: 7.67

1 = CC(C)[C@H]1C(=O)N[C@H](CO)C1c1ccc(OC(=O)CCCCCCCCCCC(=O)Oc2ccc([C@H]3[C@@H](C(C)C)C(=O)N[C@@H]3CO)c3ccccc23)c2ccccc12 (stereo partly drawn)
2 = CC(C)[C@H]1C(=O)N[C@H](CO)Cc2cc(NC(=O)CCCCCCCCCCCCC(=O)Nc3ccc4c(c3)N(C)[C@@H](C(C)C)C(=O)N[C@H](CO)C4)ccc2N1C
[ask] Could you check which of 1 and 2 has a smaller value for pKi? Please respond with the label that marks your chosen entry.
[reply] 1
